- tested.target: MBD2sc (human, UniProt Q9UBB5 150-393+Q86YP4:137-178, internal_change)
- Sequence (Q9UBB5 other isoform, or with tags, fused parts or gaps): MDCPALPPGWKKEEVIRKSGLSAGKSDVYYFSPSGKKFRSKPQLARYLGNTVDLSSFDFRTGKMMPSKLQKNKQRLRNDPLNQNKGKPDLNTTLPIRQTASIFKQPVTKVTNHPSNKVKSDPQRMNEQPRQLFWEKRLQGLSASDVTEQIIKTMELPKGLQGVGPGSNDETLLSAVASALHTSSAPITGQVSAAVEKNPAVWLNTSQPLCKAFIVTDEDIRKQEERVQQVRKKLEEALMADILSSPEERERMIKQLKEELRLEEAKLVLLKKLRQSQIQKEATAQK
- method.summary: SPR; FA: 50 mM Hepes pH 7.5, 100 mM NaCl, 1 mM MgCl2, 10 nM DNA, temperature not stated; SPR: 50 mM Hepes pH 7.5, 150 mM NaCl, 1 mM MgCl2, 1 mM TCEP, 0.05% Tween-20; NMR: 10 mM NaPO4 pH 6.5, 150 mM NaCl, 1 mM DTT, 10% 2H2O, 25 C
- condition: protein: recombinant; tags: N-terminal thioredoxin-His6-TEV site (removal stated only for NMR); blunt
Below: a set of entries, each annotated with reported pKd.
pKd is a log-scale quantity: -log10 of the concentration expressed in molar.

binder: 17 bp CpG biotin (SPR) (dsDNA) DNA 1: CTGCCGCCGAGCGCCTC DNA 2: GAGGCGCTCGGCGGCAG
pKd: 5.91

Field pKd (entry 17 bp mCpG biotin (SPR) (dsDNA, 5-methylcytosine at C8 of strand 1 and C9 of strand 2) DNA 1: CTGCCGCCGAGCGCCTC DNA 2: GAGGCGCTCGGCGGCAG ) reads 7.96

These entries and their values trace back to paper PMC9520026.
